Assign DC50 to each entry below.
# Test System: IKZF2 (Homo sapiens, UniProt Q96SW2+Q9UKS7)
# Measurement Description: Human whole blood IKZF2 degradation (flow cytometry, CD4/CD25/Foxp3+ Treg cells)
# Type: cell-based
# Parameters: endogenous in cells
# Run Parameters: 24 hrs incubation, IKZF2 MFI in CD4/CD25/Foxp3+ Treg cells, flow cytometry, read-out: IKZF2 EC50
# Sequence (Q9UKS7 whole entry, one chain of several): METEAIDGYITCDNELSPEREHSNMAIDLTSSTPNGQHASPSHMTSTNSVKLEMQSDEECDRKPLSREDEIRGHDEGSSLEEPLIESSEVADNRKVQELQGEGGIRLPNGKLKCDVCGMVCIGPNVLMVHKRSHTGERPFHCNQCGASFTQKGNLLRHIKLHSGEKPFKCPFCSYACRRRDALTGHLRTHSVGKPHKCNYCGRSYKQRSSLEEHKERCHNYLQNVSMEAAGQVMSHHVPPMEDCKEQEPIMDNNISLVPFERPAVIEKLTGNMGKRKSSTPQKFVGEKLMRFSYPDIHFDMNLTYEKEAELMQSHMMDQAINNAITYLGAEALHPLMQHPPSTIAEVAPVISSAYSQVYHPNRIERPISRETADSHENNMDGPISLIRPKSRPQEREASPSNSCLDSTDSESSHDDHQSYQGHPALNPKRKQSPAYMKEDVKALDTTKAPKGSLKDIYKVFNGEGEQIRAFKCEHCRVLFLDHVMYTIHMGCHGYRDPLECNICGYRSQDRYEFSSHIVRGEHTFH
Please give a number only; it is taken to be in nM.

Noted for COC1CCC(N[C@H]2CCCC[C@@H]2Cc2ccc3c(c2)CN(C2CCC(=O)NC2=O)C3=O)CC1 (single isomer, unassigned) : its DC50 reads 2

Noted for O=C1CCC(N2Cc3cc(C[C@H]4CCCC[C@@H]4NC4CCC(F)(F)CC4)ccc3C2=O)C(=O)N1 (stereo partly shown) : its DC50 reads 3

Noted for CC1(C)CC(N[C@H]2CCCC[C@@H]2Cc2ccc3c(c2)CN(C2CCC(=O)NC2=O)C3=O)CCO1 (stereo partly shown) [Example 109] : its DC50 reads 1

Noted for O=C1CCC(N2Cc3c(ccc(C[C@H]4CCCC[C@@H]4NC4CCOCC4)c3F)C2=O)C(=O)N1 (stereo partly shown) : its DC50 reads 1

---

# Test System: IKZF2 (Homo sapiens, UniProt Q96SW2+Q9UKS7)
# Measurement Description: HEK293 HiBiT in vitro degradation of IKZF2
# Format: cell-based
# Parameters: expressed in transfected cells
# Run Parameters: HEK293 HiBiT, 18-24 hr incubation, normalized to DMSO control; read-out: IKZF2 EC50
# Sequence (Q9UKS7 1-500 isoform Q9UKS7-2, one chain of several): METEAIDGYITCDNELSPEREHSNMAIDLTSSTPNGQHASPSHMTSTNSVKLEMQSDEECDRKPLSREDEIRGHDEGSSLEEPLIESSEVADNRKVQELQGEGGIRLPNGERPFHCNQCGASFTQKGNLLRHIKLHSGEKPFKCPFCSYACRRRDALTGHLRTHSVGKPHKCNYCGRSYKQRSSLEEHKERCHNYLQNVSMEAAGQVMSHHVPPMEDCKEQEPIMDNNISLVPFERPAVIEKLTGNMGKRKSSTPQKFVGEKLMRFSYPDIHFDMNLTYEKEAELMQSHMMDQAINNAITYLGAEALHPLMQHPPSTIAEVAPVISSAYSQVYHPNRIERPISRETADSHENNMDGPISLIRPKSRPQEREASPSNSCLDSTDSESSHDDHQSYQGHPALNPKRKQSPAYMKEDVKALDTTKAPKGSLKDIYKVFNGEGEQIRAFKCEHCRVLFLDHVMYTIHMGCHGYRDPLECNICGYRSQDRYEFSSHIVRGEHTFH
Assign DC50 to each entry below.
Please give a number only; it is taken to be in nM.

Noted for O=C1CCC(N2Cc3cc(C[C@H]4CCCC[C@@H]4NC4CCC(c5ccccn5)CC4)ccc3C2=O)C(=O)N1 (stereo partly drawn) : its DC50 reads 3

Noted for CC(N[C@H]1CCCO[C@@H]1Cc1ccc2c(c1F)CN(C1CCC(=O)NC1=O)C2=O)C1CCC1 (single isomer, unassigned) [Example 247] : its DC50 reads 5

Noted for C[C@H]1CCCC(N[C@H]2CCCC[C@@H]2Cc2ccc3c(c2)CN(C2CCC(=O)NC2=O)C3=O)C1 (stereo partly drawn) [Example 236] : its DC50 reads 6

Noted for O=C1CCC(N2Cc3cc(C[C@H]4CCC[C@H](O)[C@@H]4NC4CCCCC4)ccc3C2=O)C(=O)N1 (relative stereo) : its DC50 reads 27

Noted for N#CCC1CCC(N[C@H]2CCCC[C@@H]2Cc2ccc3c(c2)CN(C2CCC(=O)NC2=O)C3=O)CC1 (single isomer, unassigned) [Example 270] : its DC50 reads 8

Noted for [2H]C1(N[C@H]2CCCC[C@@H]2Cc2ccc3c(c2F)CN(C2CCC(=O)NC2=O)C3=O)CC2(CC2)C1 (stereo partly drawn) : its DC50 reads 2

Noted for CCOC1CN([C@H]2CCCC[C@@H]2Cc2ccc3c(c2)CN(C2CCC(=O)NC2=O)C3=O)C1 (stereo partly drawn) : its DC50 reads 30

Noted for O=C1CCC(N2Cc3c(ccc(C[C@H]4OCCC[C@@H]4NC4CCOC4)c3F)C2=O)C(=O)N1 (single isomer, unassigned) [Example 297] : its DC50 reads 101

Noted for O=C1CCC(N2Cc3cc(C[C@H]4CCCC[C@@H]4NC4CCCCC4(F)F)ccc3C2=O)C(=O)N1 (stereo partly drawn) [Example 183] : its DC50 reads 91

Noted for O=C1CCC(N2Cc3cc(C[C@H]4CC(F)(F)CC[C@@H]4NC4CCCCC4)ccc3C2=O)C(=O)N1 (stereo partly drawn) : its DC50 reads 27

Noted for O=C1CCC(N2Cc3cc(C[C@H]4C[C@@H](F)CC[C@@H]4NC4CCCCC4)ccc3C2=O)C(=O)N1 (stereo partly drawn) : its DC50 reads 18

Noted for CC1(C)CC2(CC(N[C@H]3CCCC[C@@H]3Cc3ccc4c(c3)CN(C3CCC(=O)NC3=O)C4=O)C2)C1 (stereo partly drawn) : its DC50 reads 12

Noted for O=C1CCC(N2Cc3cc(C[C@H]4CCCC[C@@H]4N4CC(OCC5CC5)C4)ccc3C2=O)C(=O)N1 (stereo partly drawn) : its DC50 reads 30

Noted for CC1(C)OCCC1N[C@H]1CCCC[C@@H]1Cc1ccc2c(c1)CN(C1CCC(=O)NC1=O)C2=O (single isomer, unassigned) [Example 273] : its DC50 reads 23

Noted for O=C1CCC(N2Cc3cc(C[C@H]4CCCC[C@@H]4NCc4cccnc4C(F)(F)F)ccc3C2=O)C(=O)N1 (stereo partly drawn) : its DC50 reads 46

Noted for O=C1CCC(N2Cc3cc(C[C@H]4CCCC[C@@H]4NCc4cc(Cl)cc(Cl)c4)ccc3C2=O)C(=O)N1 (stereo partly drawn) : its DC50 reads 79

Noted for O=C1CCC(N2Cc3cc(C[C@H]4CCCC[C@@H]4NCc4ncccc4F)ccc3C2=O)C(=O)N1 (stereo partly drawn) : its DC50 reads 111

Noted for N#CC1CCC(N[C@H]2CCCC[C@@H]2Cc2ccc3c(c2)CN(C2CCC(=O)NC2=O)C3=O)CC1 (single isomer, unassigned) [Example 267] : its DC50 reads 4

Noted for O=C1CCC(N2Cc3cc(C[C@H]4CCCC[C@@H]4NC4CCCCC45CC5)ccc3C2=O)C(=O)N1 (stereo partly drawn) [Example 228] : its DC50 reads 9

Noted for O=C1CCC(N2Cc3c(ccc(C[C@H]4OCCC[C@@H]4NC4CCc5cn[nH]c5C4)c3F)C2=O)C(=O)N1 (single isomer, unassigned) [Example 360] : its DC50 reads 139

Noted for O=C1CCC(N2Cc3c(ccc(C[C@H]4CCCC[C@@H]4NCc4ccccc4)c3F)C2=O)C(=O)N1 (stereo partly drawn) : its DC50 reads 7

Noted for N#Cc1ccc(CN[C@H]2CCCC[C@@H]2Cc2ccc3c(c2)CN(C2CCC(=O)NC2=O)C3=O)c(F)c1 (stereo partly drawn) : its DC50 reads 70

Noted for CC1(C)CCC(N[C@H]2CCCO[C@@H]2Cc2ccc3c(c2F)CN(C2CCC(=O)NC2=O)C3=O)C1 (single isomer, unassigned) [Example 258] : its DC50 reads 4

Noted for O=C1CCC(N2Cc3cc(C[C@H]4CCCC[C@@H]4NC4CC5(CCOCC5)C4)ccc3C2=O)C(=O)N1 (stereo partly drawn) : its DC50 reads 17

Noted for CC(N[C@H]1CCCC[C@@H]1Cc1ccc2c(c1)CN(C1CCC(=O)NC1=O)C2=O)C1CC(F)(F)C1 (single isomer, unassigned) [Example 137] : its DC50 reads 1

Noted for C[C@H]1CCCC(N[C@H]2CCCC[C@@H]2Cc2ccc3c(c2)CN(C2CCC(=O)NC2=O)C3=O)C1 (stereo partly drawn) [Example 237] : its DC50 reads 2

Noted for CC1(C)CC(N[C@H]2CCCC[C@@H]2Cc2ccc3c(c2)CN(C2CCC(=O)NC2=O)C3=O)CCO1 (stereo partly drawn) [Example 109] : its DC50 reads 5

---

Assign DC50 to each entry below.
# Test System: IKZF1 (Homo sapiens, UniProt Q13422+Q96SW2)
# Construct: expressed in transfected cells
# Sequence (Q13422 whole entry): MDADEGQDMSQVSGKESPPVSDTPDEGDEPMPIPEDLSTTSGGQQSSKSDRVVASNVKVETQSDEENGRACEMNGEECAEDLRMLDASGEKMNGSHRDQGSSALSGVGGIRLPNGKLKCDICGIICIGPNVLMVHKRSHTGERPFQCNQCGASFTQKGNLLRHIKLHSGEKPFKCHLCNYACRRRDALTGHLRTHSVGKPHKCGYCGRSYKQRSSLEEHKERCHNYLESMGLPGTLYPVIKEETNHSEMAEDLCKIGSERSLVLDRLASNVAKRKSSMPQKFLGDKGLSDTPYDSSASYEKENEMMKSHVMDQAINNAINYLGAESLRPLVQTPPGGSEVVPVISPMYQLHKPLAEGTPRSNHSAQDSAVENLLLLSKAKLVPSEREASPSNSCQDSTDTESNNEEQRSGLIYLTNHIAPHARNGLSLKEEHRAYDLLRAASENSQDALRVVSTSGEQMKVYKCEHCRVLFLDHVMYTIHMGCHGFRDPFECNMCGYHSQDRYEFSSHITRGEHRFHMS
# Sequence (Q96SW2 whole entry): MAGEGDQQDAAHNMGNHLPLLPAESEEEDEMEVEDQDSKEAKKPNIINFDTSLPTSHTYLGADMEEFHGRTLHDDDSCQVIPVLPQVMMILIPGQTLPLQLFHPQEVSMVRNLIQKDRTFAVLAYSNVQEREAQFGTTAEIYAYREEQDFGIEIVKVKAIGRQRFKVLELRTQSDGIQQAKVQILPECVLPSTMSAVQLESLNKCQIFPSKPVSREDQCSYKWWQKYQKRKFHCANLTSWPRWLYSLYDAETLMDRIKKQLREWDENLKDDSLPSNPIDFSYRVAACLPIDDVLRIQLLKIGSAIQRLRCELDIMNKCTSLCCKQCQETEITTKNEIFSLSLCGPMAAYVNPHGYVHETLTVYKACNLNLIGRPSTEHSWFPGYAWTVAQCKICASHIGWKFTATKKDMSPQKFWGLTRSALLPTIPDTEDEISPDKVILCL
# Sequence (Q16531 whole entry partner): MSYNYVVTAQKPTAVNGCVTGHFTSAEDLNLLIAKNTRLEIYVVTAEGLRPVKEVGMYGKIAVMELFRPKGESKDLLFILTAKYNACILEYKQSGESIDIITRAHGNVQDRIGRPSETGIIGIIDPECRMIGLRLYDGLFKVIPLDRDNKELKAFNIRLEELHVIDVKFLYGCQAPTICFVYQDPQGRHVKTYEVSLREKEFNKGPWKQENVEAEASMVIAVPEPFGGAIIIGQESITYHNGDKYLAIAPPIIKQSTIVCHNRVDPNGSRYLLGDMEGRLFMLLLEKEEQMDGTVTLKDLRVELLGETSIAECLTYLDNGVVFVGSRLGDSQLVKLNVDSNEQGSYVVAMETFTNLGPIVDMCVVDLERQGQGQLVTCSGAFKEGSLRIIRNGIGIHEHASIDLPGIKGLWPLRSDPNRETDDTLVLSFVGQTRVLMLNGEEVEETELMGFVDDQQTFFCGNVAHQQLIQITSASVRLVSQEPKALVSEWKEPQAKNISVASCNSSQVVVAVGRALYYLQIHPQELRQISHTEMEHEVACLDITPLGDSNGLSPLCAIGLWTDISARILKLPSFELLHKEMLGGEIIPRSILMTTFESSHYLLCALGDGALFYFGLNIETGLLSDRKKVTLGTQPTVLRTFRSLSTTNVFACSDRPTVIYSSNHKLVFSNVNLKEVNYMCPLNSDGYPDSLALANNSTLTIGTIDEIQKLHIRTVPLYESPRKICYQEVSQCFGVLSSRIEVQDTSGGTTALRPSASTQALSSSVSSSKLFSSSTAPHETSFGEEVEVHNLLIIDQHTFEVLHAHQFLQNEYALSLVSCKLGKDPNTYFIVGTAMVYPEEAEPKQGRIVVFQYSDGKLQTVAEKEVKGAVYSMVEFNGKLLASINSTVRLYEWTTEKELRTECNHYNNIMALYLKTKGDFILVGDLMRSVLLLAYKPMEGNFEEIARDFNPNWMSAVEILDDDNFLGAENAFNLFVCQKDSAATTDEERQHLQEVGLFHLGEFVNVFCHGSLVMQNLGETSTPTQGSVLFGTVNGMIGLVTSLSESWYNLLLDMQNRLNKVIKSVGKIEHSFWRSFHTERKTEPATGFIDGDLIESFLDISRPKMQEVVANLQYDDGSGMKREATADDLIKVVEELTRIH
# Measurement Description: HEK293 HiBiT in vitro degradation of IKZF1
# Format: cell-based
# Run Parameters: HEK293 HiBiT, 18-24 hr incubation, normalized to DMSO control; read-out: IKZF1 EC50
Please give a number only; it is taken to be in nM.

Noted for N#Cc1ccc(CN[C@H]2CCCC[C@@H]2Cc2ccc3c(c2)CN(C2CCC(=O)NC2=O)C3=O)cc1 (stereo partly shown) : its DC50 reads 99

Noted for COC1CCC(N[C@H]2CCCC[C@@H]2Cc2ccc3c(c2)CN(C2CCC(=O)NC2=O)C3=O)CC1 (single isomer, unassigned) [Example 277] : its DC50 reads 114

Noted for COC1CCC(N[C@H]2CCCC[C@@H]2Cc2ccc3c(c2)CN(C2CCC(=O)NC2=O)C3=O)CC1 (single isomer, unassigned) [Example 278] : its DC50 reads 125

---

# Test System: IKZF2 (Homo sapiens, UniProt Q96SW2+Q9UKS7)
# Measurement Description: HEK293 HiBiT in vitro degradation of IKZF2
# Type: cell-based
# Design: expressed in transfected cells
# Run Parameters: HEK293 HiBiT, 18-24 hr incubation, normalized to DMSO control; read-out: IKZF2 EC50
Assign DC50 to each entry below.
Please give a number only; it is taken to be in nM.

Noted for [2H]C1(N[C@H]2CCCC[C@@H]2Cc2ccc3c(c2F)CN(C2CCC(=O)NC2=O)C3=O)CCCCC1 (stereo partly shown) : its DC50 reads 1

Noted for O=C1CCC(N2Cc3cc(C[C@H]4CCCC[C@@H]4NC4CCCCCC4)ccc3C2=O)C(=O)N1 (stereo partly shown) : its DC50 reads 3

Noted for O=C1CCC(N2Cc3c(ccc(C[C@H]4OCCC[C@@H]4NC4CCc5cn[nH]c5C4)c3F)C2=O)C(=O)N1 (single isomer, unassigned) [Example 361] : its DC50 reads 34

Noted for O=C1CCC(N2Cc3c(ccc(C[C@H]4CCCC[C@@H]4NCC4COC4)c3F)C2=O)C(=O)N1 (stereo partly shown) [Example 114] : its DC50 reads 8
